meta.source: patent US12589092B2

METHOD_DESCRIPTION: Pharmacokinetic study in rats (intragastrical administration, plasma LC-MS/MS)
MEASUREMENT_CONTEXT: male, SD, rat, po, 3 mg/kg
MEASURED_QUANTITY: half-life (h)

# COMPOUND, half-life / h
records = [
    ("CC(=O)c1c(C)c2cnc(Nc3ccc4c(c3)OC[C@@H]3CN(C5CCN(C(C)=O)CC5)CCN43)nc2n(C2CCCC2)c1=O [Compound 5S]", 2.18),
    ("CC(=O)c1c(C)c2cnc(Nc3ccc4c(c3)OC[C@@H]3CN(C5CN(C)C5)CCN43)nc2n(C2CCCC2)c1=O [Compound 7S]", 3.19),
    ("CC(=O)c1c(C)c2cnc(Nc3ccc4c(c3)OC[C@@H]3CN(C5CN(S(C)(=O)=O)C5)CCN43)nc2n(C2CCCC2)c1=O [Compound 14S]", 1.84),
    ("CC(=O)c1c(C)c2cnc(Nc3ccc4c(c3)OC[C@@H]3CN(C5CN(C(C)=O)C5)CCN43)nc2n(C2CCCC2)c1=O [Compound 11S]", 2.61),
]
